Measured pIC50 of individual entries
Target: human GPR17 receptor (Homo sapiens, UniProt Q13304)
Sequence (Q13304 whole entry): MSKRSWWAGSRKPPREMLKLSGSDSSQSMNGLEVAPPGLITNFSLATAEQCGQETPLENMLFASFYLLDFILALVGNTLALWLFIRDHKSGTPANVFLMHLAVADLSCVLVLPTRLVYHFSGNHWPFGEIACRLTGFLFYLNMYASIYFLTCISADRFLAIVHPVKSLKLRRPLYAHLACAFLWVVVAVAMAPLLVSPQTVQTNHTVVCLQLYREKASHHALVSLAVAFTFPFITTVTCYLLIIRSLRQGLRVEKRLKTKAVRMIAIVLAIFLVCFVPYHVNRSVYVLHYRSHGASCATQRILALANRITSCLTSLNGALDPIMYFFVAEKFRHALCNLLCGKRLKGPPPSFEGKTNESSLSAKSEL
Assay: Calcium mobilization functional assay (Fluo-8, FLIPR TETRA) in HEK-293 hGPR17 (Gα-q assay)
Conditions: antagonism of MDL29,951 (~EC80) induced Ca2+ signal; cell line (HEK-293 hGPR17 or HEK-293 Suchi5 hGPR17) not given
pIC50: −log10 of the molar value.

{"columns": ["compound", "pIC50"],
 "data": [
  ["N#Cc1ccc(NS(=O)(=O)c2c[nH]cc2Cc2ccccc2)c(F)c1 [Cpd 034]", "> 6.30"],
  ["N#Cc1cc(F)c(NS(=O)(=O)c2c[nH]c(-c3c(F)cc(F)cc3F)c2)cc1Cl [Cpd 492]", "5.30 to 6.30"],
  ["O=S(=O)(Nc1cc(F)c(C(F)(F)F)cc1F)c1c[nH]c(-c2cncs2)c1 [Cpd 597]", "> 6.30"],
  ["CCn1ccnc1-c1cc(S(=O)(=O)Nc2cc(F)c(C(F)(F)F)cc2F)c[nH]1 [Cpd 248]", "5.30 to 6.30"],
  ["N#Cc1cccc(Cc2c[nH]cc2S(=O)(=O)Nc2cc(F)c(C(F)(F)F)cc2F)c1 [Cpd 574]", "5.30 to 6.30"],
  ["N#Cc1ccc(NS(=O)(=O)c2c[nH]cc2-c2cccnc2)c(F)c1 [Cpd 437]", "4.30 to 5.30"],
  ["O=S(=O)(Nc1cc(C(F)(F)F)ncc1F)c1c[nH]c(-c2ccccc2)c1 [Cpd 199]", "4.30 to 5.30"],
  ["O=S(=O)(Nc1cc(F)c(OC(F)F)cc1F)c1c[nH]c(-c2cncs2)c1 [Cpd 628]", "> 6.30"],
  ["N#CCOc1cc(F)c(NS(=O)(=O)c2c[nH]c(-c3ccccc3F)c2)cc1F [Cpd 448]", "> 6.30"],
  ["Cc1cc(NS(=O)(=O)c2c[nH]c(-c3cc(Cl)c(F)cc3F)c2)c(F)cc1C#N [Cpd 471]", "5.30 to 6.30"],
  ["N#Cc1ccc(NS(=O)(=O)c2c[nH]c(-c3cc(Cl)ccc3Cl)c2)c(F)c1 [Cpd 260]", "> 6.30"],
  ["CC(C)n1cccc(-c2cc(S(=O)(=O)Nc3ccc(C#N)cc3F)c[nH]2)c1=O [Cpd 603]", "4.30 to 5.30"],
  ["CN(C)c1cccc(-c2cc(S(=O)(=O)Nc3ccc(C#N)cc3F)c[nH]2)c1 [Cpd 521]", "4.30 to 5.30"],
  ["O=S(=O)(Nc1cc(F)c(OC(F)F)cc1F)c1c[nH]c(-c2ccccc2F)c1 [Cpd 409]", "> 6.30"],
  ["N#Cc1cc(F)c(NS(=O)(=O)c2c[nH]cc2Cc2ccc(F)cc2)cc1F [Cpd 584]", "> 6.30"],
  ["O=S(=O)(Nc1cc(F)c(OC(F)F)cc1F)c1c[nH]cc1Cc1cccc(F)c1 [Cpd 453]", "> 6.30"],
  ["O=S(=O)(Nc1cc(F)c(C(F)(F)F)cc1F)c1c[nH]c(-c2cccc3ccoc23)c1 [Cpd 517]", "5.30 to 6.30"],
  ["[2H]C([2H])(c1cccc(F)c1)c1c[nH]cc1S(=O)(=O)Nc1cc(F)c(C#N)cc1F [Cpd 643]", "> 6.30"]
]}
